- Test system: N. gonorrhoeae WHO Q
- experimental_protocol: Liquid broth MIC in Fastidious broth
- Type: cell-based
- condition: Neisseria gonorrhoeae, read-out: Minimum Inhibitory Concentration, WHO Q
Reported MIC is given for each of the following compounds.

{"compound": "NCCN1CCN(C(=O)N[C@@H](C(=O)N[C@H]2Cc3cccc(C(=O)O)c3OB2O)c2c(F)cccc2Cl)C(=O)C1=O (single isomer, unassigned) [Example 205]", "MIC": "> 64 µg/mL"}
{"compound": "CCN1CCN(C(=O)N[C@@H](C(=O)N[C@H]2Cc3ccc(F)c(C(=O)O)c3OB2O)c2ccc(O)c(O)c2)C(=O)C1=O [Example 211]", "MIC": "16 to 32 µg/mL"}
{"compound": "CCN1CCN(C(=O)N[C@@H](C(=O)N[C@H]2Cc3ccc(F)c(C(=O)O)c3OB2O)c2c(Cl)cc(O)c(O)c2F)C(=O)C1=O (single isomer, unassigned) [Example 207]", "MIC": "> 64 µg/mL"}

---

- Tested on: E. coli ATCC 25922
- experimental_protocol: Broth microdilution MIC in CAMHB
- Format: cell-based
- condition: Escherichia coli, ATCC25922; E. coli ATCC 25922; MHB; read-out: Minimum Inhibitory Concentration, E. coli 25922

{"compound": "O=C(NC(C(=O)N[C@H]1Cc2ccc(F)c(C(=O)O)c2OB1O)c1ncc(O)cc1F)c1ccnc(F)c1 (stereo partly drawn)", "MIC": "> 128 µg/mL"}
{"compound": "CCN1CCN(C(=O)NC(C(=O)N[C@H]2Cc3cccc(C(=O)O)c3OB2O)c2c(F)cc(N)cc2F)C(=O)C1=O (stereo partly drawn)", "MIC": "32 to 64 µg/mL"}
{"compound": "NC1(CN2CCN(C(=O)N[C@@H](C(=O)N[C@H]3Cc4cccc(C(=O)O)c4OB3O)c3c(F)cc(O)cc3F)C(=O)C2=O)CC1 (single isomer, unassigned)", "MIC": "8 to 16 µg/mL"}

---

- Tested on: E. coli AG100A
quantity_measured: MIC

{"molecule": "CCN1C[C@H](C)N(C(=O)N[C@@H](C(=O)N[C@H]2Cc3cccc(C(=O)O)c3OB2O)c2ccc(O)c(F)c2F)C(=O)C1=O", "value_observed": "32 to 64 µg/mL"}
{"molecule": "CCN1CCN(C(=O)NC(C(=O)N[C@H]2Cc3cccc(C(=O)O)c3OB2O)c2ccc(O)c(NS(C)(=O)=O)c2)C(=O)C1=O (some centres unmarked)", "value_observed": "2 to 4 µg/mL"}
{"molecule": "O=C(O)c1cccc2c1OB(O)[C@@H](NC(=O)C(NC(=O)N1CCN(C3CNC3)C(=O)C1=O)c1c(F)cc(O)cc1F)C2 (some centres unmarked)", "value_observed": "2 to 4 µg/mL"}
{"molecule": "NC1(CN2CCN(C(=O)N[C@@H](C(=O)N[C@H]3Cc4cccc(C(=O)O)c4OB3O)c3ccc(O)c(F)c3F)C(=O)C2=O)CC1 (single isomer, unassigned)", "value_observed": "32 to 64 µg/mL"}
{"molecule": "CCN1CCN(C(=O)NC(C(=O)N[C@H]2Cc3cccc(C(=O)O)c3OB2O)c2ccc(O)c(N(S(C)(=O)=O)S(C)(=O)=O)c2)C(=O)C1=O (some centres unmarked)", "value_observed": "2 to 4 µg/mL"}
{"molecule": "CCN1CCN(C(=O)NC(C(=O)N[C@H]2Cc3cccc(C(=O)O)c3OB2O)c2ccc(C(=O)O)cc2F)C(=O)C1=O (some centres unmarked)", "value_observed": "8 to 16 µg/mL"}
{"molecule": "C[C@H]1CN(CCF)C(=O)C(=O)N1C(=O)NC(C(=O)N[C@H]1Cc2cccc(C(=O)O)c2OB1O)c1cc(F)c(O)c(F)c1F (some centres unmarked)", "value_observed": "32 to 64 µg/mL"}
{"molecule": "CCN1CCN(C(=O)NC(C(=O)N[C@H]2Cc3cccc(C(=O)O)c3OB2O)c2ccc(C(=O)O)c([N+](=O)[O-])c2)C(=O)C1=O (some centres unmarked)", "value_observed": "32 to 64 µg/mL"}
{"molecule": "O=C(O)c1cccc2c1OB(O)[C@@H](NC(=O)C(NC(=O)N1CCN(CCBr)C(=O)C1=O)c1ccc(O)c(F)c1F)C2 (some centres unmarked)", "value_observed": "32 to 64 µg/mL"}
{"molecule": "NCCN1CCN(C(=O)N[C@@H](C(=O)N[C@H]2Cc3cccc(C(=O)O)c3OB2O)c2c(F)cc(O)cc2F)C(=O)C1=O (single isomer, unassigned)", "value_observed": "0.5 to 1 µg/mL"}
{"molecule": "NCCN1CCN(C(=O)N[C@@H](C(=O)N[C@H]2Cc3cccc(C(=O)O)c3OB2O)c2cc(Cl)c(O)c(Cl)c2)C(=O)C1=O (single isomer, unassigned)", "value_observed": "0.5 to 1 µg/mL"}
{"molecule": "NCCN1CCN(C(=O)N[C@@H](C(=O)N[C@H]2Cc3ccc(F)c(C(=O)O)c3OB2O)c2c(F)cc(O)cc2F)C(=O)C1=O (single isomer, unassigned)", "value_observed": "8 to 16 µg/mL"}
{"molecule": "CCN1CCN(C(=O)NC(C(=O)N[C@H]2Cc3ccc(SCCN)c(C(=O)O)c3OB2O)c2csc(N)n2)C(=O)C1=O (some centres unmarked)", "value_observed": "32 to 64 µg/mL"}
{"molecule": "O=C(O)c1cccc2c1OB(O)[C@@H](NC(=O)C(NC(=O)N1CCN(CCF)C(=O)C1=O)c1c(F)cc(O)cc1F)C2 (mixture of isomers)", "value_observed": "0.5 to 1 µg/mL"}
{"molecule": "CCN1CCN(C(=O)N[C@H](C(=O)N[C@H]2Cc3cccc(C(=O)O)c3OB2O)c2ccc(C(=O)O)cc2O)C(=O)C1=O (single isomer, unassigned)", "value_observed": "32 to 64 µg/mL"}
{"molecule": "CCN1CCN(C(=O)NC(C(=O)N[C@H]2Cc3cccc(C(=O)O)c3OB2O)c2ccc(C(N)=O)c(O)c2)C(=O)C1=O (some centres unmarked)", "value_observed": "2 to 4 µg/mL"}
{"molecule": "CCN1CCN(C(=O)NC(C(=O)N[C@H]2Cc3cccc(C(=O)O)c3OB2O)c2ccc(O)cc2OC)C(=O)C1=O (some centres unmarked)", "value_observed": "2 to 4 µg/mL"}
{"molecule": "NCCN1CCN(C(=O)N[C@H](C(=O)N[C@H]2Cc3cccc(C(=O)O)c3OB2O)c2c(Cl)cccc2Cl)C(=O)C1=O (single isomer, unassigned)", "value_observed": "> 128 µg/mL"}
{"molecule": "NCCCN1CCN(C(=O)N[C@@H](C(=O)N[C@H]2Cc3ccc(F)c(C(=O)O)c3OB2O)c2ncc(O)cc2F)C(=O)C1=O", "value_observed": "8 to 16 µg/mL"}
{"molecule": "O=C(O)c1c(F)ccc2c1OB(O)[C@@H](NC(=O)C(NC(=O)N1CCN(CCF)C(=O)C1=O)c1c(F)cc(O)cc1F)C2 (some centres unmarked)", "value_observed": "8 to 16 µg/mL"}
{"molecule": "CCN1CCN(C(=O)N[C@H](C(=O)N[C@H]2Cc3cccc(C(=O)O)c3OB2O)c2cc(O)cc(O)c2)C(=O)C1=O (single isomer, unassigned)", "value_observed": "8 to 16 µg/mL"}
{"molecule": "CCN1C[C@H](C)N(C(=O)NC(C(=O)N[C@H]2Cc3cccc(C(=O)O)c3OB2O)c2c(F)cc(O)cc2F)C(=O)C1=O (some centres unmarked)", "value_observed": "32 to 64 µg/mL"}
{"molecule": "NCCN1CCN(C(=O)N[C@H](C(=O)N[C@H]2Cc3cccc(C(=O)O)c3OB2O)c2c(F)cccc2F)C(=O)C1=O (single isomer, unassigned)", "value_observed": "32 to 64 µg/mL"}
